- ASSAY_INFO: in vitro
- CONDITION_LABEL: rat (astrocytes)
EXPERIMENTAL_READOUT: Papp
Include the unit right after the number.

For record CC(C)CN(CC(=O)N(CCc1ccc(S(N)(=O)=O)cc1)CC(N)=O)C(=O)CNCCN1CCCC1 the listed Papp is 2.1 ×10⁻⁶ cm/s

The reported Papp of the compound CC(C)CN(CC(=O)N(CCc1ccc(S(N)(=O)=O)cc1)CC(N)=O)C(=O)CNCCc1ccccc1F was 2.8 ×10⁻⁶ cm/s

// sample CC(C)CN(CC(=O)N(CCCN1CCCC1=O)CC(N)=O)C(=O)CNCCc1ccccc1F , its Papp was 4.1 ×10⁻⁶ cm/s
